Test: Cmax in cynomolgus monkey at 5 mg/kg, po
Type: ADME, organism-based, Macaca fascicularis
Design: route oral, dose 5 mg/kg
Settings: in vivo
reported property: Cmax

[[record]]
structure_smiles = "Cc1cc(-c2ccnc(Nc3cnn(C)c3)n2)ccc1CNC(=O)N1CC(OC(C)C)C1"
endpoint_value = "282 ng/mL"


----------
Here the recorded solubility kinetic is given for each entry.
Assay: Kinetic solubility of compound at pH 6.8 by shake flask method
Assay type: physicochemical
Conditions: buffer, read-out: Kinetic_solubility
reported property: solubility kinetic (µg/mL)

[[record]]
structure_smiles = "Cc1cc(-c2ncnc3[nH]ccc23)ccc1CNC(=O)c1cnc(C(C)(C)C)s1"
unit = "µg/mL"
comparator = "="
endpoint_value = 10

[[record]]
structure_smiles = "Cc1cc(-c2ccnc(Nc3cnn(C)c3)n2)ccc1CNC(=O)N1CC(OC(C)C)C1"
unit = "µg/mL"
comparator = ">"
endpoint_value = 10

[[record]]
structure_smiles = "Cc1cc(-c2ccnc(Nc3ccccc3)n2)ccc1CNC(=O)c1cnc(C(C)(C)C)s1"
unit = "µg/mL"
comparator = "<"
endpoint_value = 0.1

[[record]]
structure_smiles = "Cc1cc(-c2ccnc(Nc3cnn(C)c3)n2)ccc1CNC(=O)c1cnc(C(C)(C)C)s1"
unit = "µg/mL"
comparator = "="
endpoint_value = 2.7

[[record]]
structure_smiles = "Cc1cc(-c2ccnc(Nc3ccccn3)n2)ccc1CNC(=O)c1cnc(C(C)(C)C)s1"
unit = "µg/mL"
comparator = "="
endpoint_value = 0.23

